B1: TPR 5TU (parent)
chain: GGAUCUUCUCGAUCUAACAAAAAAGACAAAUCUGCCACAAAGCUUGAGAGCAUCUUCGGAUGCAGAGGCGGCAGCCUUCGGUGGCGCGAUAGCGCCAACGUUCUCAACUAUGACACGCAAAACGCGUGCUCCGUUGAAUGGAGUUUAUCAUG

# Variants of: B1
# Assay Notes: polymerase ribozyme fitness, log enrichment relative to wild type (log ratio); higher = more active; in vitro selection for triplet polymerase activity
This sample holds only a part of the variants without activity.
Reported Endpoint: polymerase ribozyme fitness (log ratio)
Returns: the value as a bare number; no unit string appended.

[[record]]
mutation = "C118U G140U"
reported_endpoint = "polymerase ribozyme fitness (log ratio)"
measurement = -3.11

[[record]]
mutation = "U135A G136C"
reported_endpoint = "polymerase ribozyme fitness (log ratio)"
measurement = -4.14

[[record]]
mutation = "G50C U101G"
reported_endpoint = "polymerase ribozyme fitness (log ratio)"
measurement = -2.64


Next:
[Q] Read off the recorded polymerase ribozyme fitness (log ratio) for C76A C85U U145C
[A] -0.371
